Cited source for all entries: PubChem BioAssay (NCATS)

- experiment: qHTS of pediatric cancer cell lines to identify multiple opportunities for drug repurposing: Primary screen for RD cells (AID 1347104); also: nearly all actives have a fitted effect of over 55% in size
- details: RD rhabdomyosarcoma viability, CellTiter-Glo luminescence, 48 h; series mostly up to 46 µM
Records with an inconclusive call do not appear. The source made the active and inactive calls. Calls follow the shape of the dose curve; as a rule, active = well fitted cell-killing curve with a large enough effect; inconclusive = small, poorly fitted or top-dose-only effect; inactive = flat fitted curve, though single readings scatter.
Write down one outcome, taken from Yes = active, No = inactive

Below are worked cases with known answers.
>>> classassignment("COCCCCC(=NOCCN)c1ccc(C(F)(F)F)cc1")
"Yes"
>>> classassignment("CCCNC(=O)NS(=O)(=O)c1ccc(Cl)cc1")
"No"

Input line: // param item: C[N+](C)(C)CCCCCC[N+](C)(C)C ; yields the recorded call
Output line: No

Input line: // param item: O=C(Nc1c(Cl)cncc1Cl)c1ccc(OC(F)F)c(OCC2CC2)c1 ; yields the recorded call
Output line: No

Input line: // param item: O=C1C(Cl)=C(NCCN2CCOCC2)C(=O)c2ncccc21 ; yields the recorded call
Output line: Yes

###

- Tested on: HEK293
- experiment: Cytotoxic Profiling of Annotated Libraries Using Quantitative High-Throughput Screening (AID 1296008); also: nearly all actives have a fitted effect of over 60% in size
- details: Five cell lines viability, CellTiter-Glo ATP luminescence, 48-72 h
Records with an inconclusive call do not appear. Calls of active or inactive are those of the source. The call rests on the fitted dose curve; in most records, active means well fitted inhibition curve with a large enough effect; inconclusive means small, poorly fitted or top-dose-only effect; inactive means flat fitted curve, though single readings scatter.
Write down one outcome, taken from 1 for active, -1 for inactive

Below are worked cases with known answers.
>>> classassignment("COc1cc2nc(-c3ccc(N4CCN(C)CC4)cc3)nc(NCCN3CCOCC3)c2cc1OC")
1
>>> classassignment("CC(=O)CCCCn1c(=O)c2c(ncn2C)n(C)c1=O")
-1
>>> classassignment("Nc1ncnc2c1ncn2[C@@H]1O[C@@H](CO)[C@H](O)[C@H]1O")
-1
>>> classassignment("COc1cc(N2CCC(N3CCN(C)CC3)CC2)ccc1Nc1ncnc(Nc2ccccc2S(=O)(=O)C(C)C)n1")
1
>>> classassignment("Clc1ccc(C(c2ccc(Cl)cc2)n2cc[n+](CC(OCc3ccc(Cl)cc3Cl)c3ccc(Cl)cc3Cl)c2)cc1 (stereo unspecified)")
1

Now, please, on to the next compound.
Input line: // param item: CCN(CC)CCOC(=O)c1ccc(N)cc1 ; yields the recorded call
Output line: -1

###

- experiment: Quantitative High-Throughput drug screen in 47 multiple myeloma cell lines against the NCATS MIPE library collection: Karpas25_ECACC cell viability assay (AID 1918968; also: nearly all actives have a fitted effect of over 35% in size)
- details: Karpas25 myeloma viability, CellTiter-Glo ATP, 48 h; series mostly up to 45.8 µM
Inconclusive results are not listed. The source made the active and inactive calls. The call rests on the fitted dose curve; in most records, active means well fitted cell-killing curve with a large enough effect; inconclusive means small, poorly fitted or top-dose-only effect, or effect the other way; inactive means no such curve, though single readings can be large or run the other way.
Write down one outcome, taken from TRUE = active, FALSE = inactive

>>> classassignment("CNC(=O)c1ccccc1Sc1ccc2c(C=Cc3ccccn3)n[nH]c2c1")
"TRUE"
>>> classassignment("O=c1c(O)c(-c2ccc(O)cc2)oc2cc(O)cc(O)c12")
"TRUE"
>>> classassignment("O=C1c2ccccc2-[n+]2ccc3c([nH]c4ccccc43)c21")
"TRUE"
>>> classassignment("CO[C@@H](C(=O)N1Cc2[nH]nc(NC(=O)c3ccc(N4CCN(C)CC4)cc3)c2C1)c1ccccc1")
"TRUE"
>>> classassignment("Nc1ncnc2c1ncn2[C@@H]1O[C@@H](CO)[C@H](O)[C@H]1O")
"FALSE"

Input line: // param item: Cc1ccc(C(C)(O)c2nc3ccccc3s2)c(C)c1 (stereo not drawn) ; yields the recorded call
Output line: FALSE

Input line: // param item: COc1ccc(-c2nc(N3CCOCC3)c3sc(CN(C)c4ncc(C(=O)NO)cn4)cc3n2)cn1 ; yields the recorded call
Output line: FALSE

Input line: // param item: COCCOc1nc(-c2ccc(Cl)c(Cl)c2)n(-c2ccc(NC(=O)CCl)cc2)n1 ; yields the recorded call
Output line: TRUE

Input line: // param item: CC1(C)S[C@H]2[C@H](NC(=O)[C@@H](N)c3ccc(O)cc3)C(=O)N2[C@@H]1C(=O)O ; yields the recorded call
Output line: TRUE

Input line: // param item: O=C(Nc1cc(Cl)cc2c1[nH]c1cnccc12)c1cccnc1 ; yields the recorded call
Output line: TRUE
